Test Target: Autotaxin (Homo sapiens)
Method Description: Inhibition of ATX in human plasma using LPC as substrate pretreated for 15 mins followed by substrate addition measured after 3 hrs by LC-MS/MS analysis
Readout Kind: IC50
Hey, just the number and the unit after it is fine.

[
  {
    "Compound Smiles": "O=C(NC1CCN(C(=O)OCc2cc(Cl)cc(Cl)c2)CC1)c1nc(-c2ccc(CP(=O)(O)O)cc2)cs1",
    "IC50": "15 nM"
  }
]

// next entry
stdin: # IC50 lookup, item `CS(=O)(=O)Nc1ccc(-c2csc(C(=O)NC3CCN(C(=O)OCc4cc(Cl)cc(Cl)c4)CC3)n2)cc1`
stdout: 735 nM
